# key: entry, value: growth
Test system: A498 renal
Assay: NCI-60 one-dose screen, 48 h (100 = growth as untreated, 0 = no growth, -100 = all killed)
Settings: 10 µM unless noted
Procedure: Growth inhibition of the A498 human tumor cell line is measured as a screen for anti-cancer activity. Cells are grown in 96 well plates and exposed to the test compound for 48 hours. Compounds are tested at a single concentration, which is 10^-5 M for most compounds. The reported endpoint is percent growth (GI% or GIPRCNT), where numbers from 0 - 100% represent growth inhibition, and numbers from -100% - 0 represent cell death. For example, a value of 40 represents 60% growth inhibition. […]
About 83,000 compounds went through this panel and 20% of them were active in at least one assay; those are over-represented in the sample as a whole. Activity calls are given as the source filed them. The calls were made as follows: active = growth percent below 10; inactive = the rest.
readout-label: growth

INSERT INTO measurements (molecule, value_observed) VALUES
  ('CC(=O)NC(CCC(=O)c1ccccc1)C(=O)O (configuration not stated)', '99.4% (inactive)'),
  ('COc1cc(C(=O)O)c(O)c(C(C)(C)C)c1', '96.3% (inactive)'),
  ('Nc1cc2ccccc2c(O)c1O', '97.2% (inactive)'),
  ('CC(=O)[C@@]1(O)CC[C@H]2[C@@H]3CC[C@@H]4CC(=O)CC[C@]4(C)[C@H]3[C@@H](O)C[C@@]21C', '88.6% (inactive)'),
  ('O=Cc1ccc(Cl)c(Cl)c1', '83.3% (inactive)'),
  ('O=C(O)C1CCCN1C(=O)OCc1ccccc1 (configuration not stated)', '108% (inactive)'),
  ('CC(CO)(CO)C(=O)O', '85.3% (inactive)'),
  ('N=C(N)c1nn(C2OC(CO)C(O)C2O)c2nc[nH]c(=O)c12 (configuration not stated)', '15.4% (inactive)'),
  ('O=C(NCc1ccccc1)/C(=C/c1ccccc1)NC(=O)c1ccccc1', '90.9% (inactive)'),
  ('Oc1ccc(CCC2CCNc3ccccc32)cc1 (configuration not stated)', '69.2% (inactive)'),
  ('NS(=O)(=O)c1cc(=O)[nH]c(=O)[nH]1', '190% (inactive)'),
  ('COc1cc(OC)c(NC(=O)C(Sc2nc(C)cc(C)c2C#N)c2ccccc2)cc1Cl (configuration not stated)', '111% (inactive)'),
  ('O=CNCCc1ccccc1', '111% (inactive)'),
  ('CC(=O)Nc1ccc(C(=O)c2ccc(S(=O)(=O)Nc3ccccc3)cc2)cc1', '79.2% (inactive)'),
  ('Cc1ccc(OC(=O)c2ccccc2)cc1', '95.6% (inactive)'),
  ('CCC(=O)C1C(=O)c2ccccc2C1=O', '114% (inactive)'),
  ('CCOC(OCC)C(=O)c1ccccc1', '94% (inactive)'),
  ('CCOc1ccccc1NC(=O)CCl', '113% (inactive)'),
  ('NC(=S)N/N=C/c1ccc(Cl)cc1', '99.5% (inactive)'),
  ('CC(C)C1CCC(C)C(O)C1 (configuration not stated)', '92% (inactive)'),
  ('C=C1CC2(OC1=O)C(=O)N(C)c1ccc(I)cc12 (configuration not stated)', '-13.6% (active)'),
  ('CC(=O)N(CCCCCCN(C(C)=O)C(C)=O)C(C)=O', '108% [100 µM] (inactive)'),
  ('Cc1ccccc1NC(=O)Oc1ccc(Cl)cc1C(=O)c1ccccc1', '107% (inactive)'),
  ('CC1CC(C)S(=O)(=O)C1 (configuration not stated)', '122% (inactive)'),
  ('CCCCCCCCCCCCSC1=C(Cl)C(=O)C(OC)=C(OC)C1=O', '77.4% (inactive)'),
  ('CN(C)CCOC(=O)Nc1ccc(Cc2ccc(NC(=O)OCCN(C)C)cc2)cc1', '126% [100 µM] (inactive)'),
  ('CC(=O)OC/C(C)=C\CC(C)COC(C)=O (configuration not stated)', '95.7% (inactive)');
